- target_entity: M4 muscarinic receptor (Homo sapiens)
- Construct: expressed in transfected cells; host or cells: CHO (M4-CHO)
- Sequence (P08173 whole entry): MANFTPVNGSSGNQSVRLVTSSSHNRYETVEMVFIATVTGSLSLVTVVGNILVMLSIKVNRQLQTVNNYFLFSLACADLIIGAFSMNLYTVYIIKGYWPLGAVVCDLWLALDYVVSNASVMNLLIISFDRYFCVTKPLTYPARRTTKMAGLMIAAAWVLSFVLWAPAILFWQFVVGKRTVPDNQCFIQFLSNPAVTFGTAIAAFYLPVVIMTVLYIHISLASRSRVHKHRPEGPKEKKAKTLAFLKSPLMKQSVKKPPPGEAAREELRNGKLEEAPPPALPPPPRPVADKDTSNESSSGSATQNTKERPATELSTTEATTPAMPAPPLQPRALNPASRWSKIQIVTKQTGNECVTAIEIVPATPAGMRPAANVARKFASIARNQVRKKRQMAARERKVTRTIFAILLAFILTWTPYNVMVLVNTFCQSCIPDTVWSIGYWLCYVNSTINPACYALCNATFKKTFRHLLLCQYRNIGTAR
- test_method_notes: Functional mobilization of intracellular calcium (FLIPR) in M4-CHO cells
- Format: cell-based
- setup_conditions: M4-CHO cells, calcium mobilization (FLIPR)
- Protocol: Functional Mobilization of Intracellular Calcium to Determine Muscarinic Receptor Activity: […] Compounds are prepared at a 2× fold concentration in a 96-well plate (round bottom, Costar Corning cat# 3656), by reconstituting the pre-spotted compounds in bath 1 containing 1 mM probenecid. […] In both assay modes, the fluorescence is recorded for 60 sec (excitation wavelength is […] and emission wavelength 540 nm) using the FLIPR 3 instrument. […]
pEC50: −log10 of the molar value.
The following compounds are listed with their measured pEC50 values.
measure_name: pEC50

> print(dat)
                                   compound        result
1  COC(=O)N1C2CCC1CC(N1CCC3(CC1)CN(S(C)(=O)=O)c1ccc(F)cc13)C2 (stereo not drawn)  6.00 to 7.00
2  CCOC(=O)N1CCC(N2CCC3(CC2)CN(CCOC)c2ccc(F)cc23)CC1        < 6.00
3  CC(=O)N1CC2(CCN(C3CCN(C(=O)O[C@H]4CCOC4)CC3)CC2)c2cc(F)ccc21        < 6.00
4     Clc1ccc2c(c1)C1(CCN(CC3CCOCC3)CC1)CO2        < 6.00
5  CC(=O)N1CC2(CCN(C3CCCN(C(=O)OC(C)C)CC3)CC2)c2cc(F)ccc21 (stereo not drawn)        < 6.00
6  COCCOC(=O)N1CC2(CCN(C3CC4CCC(C3)N4C(=O)OC(C)C)CC2)c2cc(F)ccc21 (stereo not drawn)        < 6.00
7  CC(=O)N1CC2(CCN(CC3CCN(C(=O)OC(C)C)CC3)CC2)c2cc(C)ccc21        < 6.00
8  CC(=O)N1CC2(CCN(CC3CCCCC3)CC2)c2cc(F)ccc21        < 6.00
9  Fc1ccc2c(c1)C1(CCN(C3CC4CCC(C4)C3)CC1)CN2 (stereo not drawn)  6.00 to 7.00
